This collection of values is drawn from patent US20260347330A1.

Each entry below lists one item and its recorded Ki value.
target: hSERT (Homo sapiens, UniProt P31645); construct: no vendor name is printed for this cell line) RBHSTM-K; host or cells: HEK293; test: SERT [3H]-citalopram competition radioligand binding, hSERT expressing HEK293 cell membranes; settings: 0.5 nM [3H]-citalopram competition, hSERT HEK293 membranes, pH 7.4, 2 h ambient; N = 1; read-out: SERT pKi (converted)
Sequence (P31645 whole entry): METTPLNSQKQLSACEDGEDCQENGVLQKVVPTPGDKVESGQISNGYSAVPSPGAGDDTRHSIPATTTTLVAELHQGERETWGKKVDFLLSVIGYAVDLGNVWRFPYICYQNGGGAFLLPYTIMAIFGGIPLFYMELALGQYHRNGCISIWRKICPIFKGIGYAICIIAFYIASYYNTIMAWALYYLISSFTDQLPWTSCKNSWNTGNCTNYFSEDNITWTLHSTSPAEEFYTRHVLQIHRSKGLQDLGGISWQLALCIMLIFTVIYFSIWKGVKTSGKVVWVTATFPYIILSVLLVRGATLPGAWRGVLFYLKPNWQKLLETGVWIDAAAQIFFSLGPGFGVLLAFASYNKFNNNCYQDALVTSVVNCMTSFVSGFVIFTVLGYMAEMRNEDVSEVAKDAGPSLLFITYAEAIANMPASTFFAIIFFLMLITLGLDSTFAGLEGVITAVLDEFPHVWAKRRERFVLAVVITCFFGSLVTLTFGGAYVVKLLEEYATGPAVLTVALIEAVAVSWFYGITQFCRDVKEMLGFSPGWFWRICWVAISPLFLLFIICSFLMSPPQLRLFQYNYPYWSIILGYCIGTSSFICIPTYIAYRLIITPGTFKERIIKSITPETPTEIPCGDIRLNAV
Just the number please, in nM, no unit attached.

Worked examples, 3 molecules total:
CCNC(C)(c1ccccc1)C1CCCC1 (stereo not shown) = 1120
CC(c1ccccc1)(C1CCCC1)N1CCCCC1 (stereo not shown) = 479
CC(C)NC(C)(c1ccccc1)C1CCCC1 (stereo not shown) = 151

Consider now this further molecule.
Indicate its recorded Ki; the molecule in question is CC(c1ccccc1)(C1CCCCC1)N1CCCCC1 (stereo not shown)
2630

---

test system: NMDAR; assay: NMDA receptor [3H]-MK-801 competition radioligand binding in rat forebrain; details: at 10,000 nM
Observable: % inhibition of specific [3H]-MK-801 binding (%)
// note: answer is a bare numeric in %

Worked examples follow.
C#CC(N)(c1ccccc1)C1CCCC1 (stereo not shown) = 45.0
NC(c1ccccc1)C1CCCC1 (stereo not shown) = 32.4
CC(N)(c1cc2ccccc2s1)C1CCCC1 (stereo not shown) = 34.6

Then there is this compound:
Return reported % inhibition of specific [3H]-MK-801 binding. Input compound: C=CCC(N)c1ccccc1 (stereo not shown)
43.9

---

# pKi annotations
biological target: hSERT (Homo sapiens, UniProt P31645); construct: no vendor name is printed for this cell line) RBHSTM-K; host or cells: HEK293; experiment: SERT [3H]-citalopram competition radioligand binding, hSERT expressing HEK293 cell membranes
Units for pKi: none; it is -log10 of a concentration expressed in mol/L.

CNC(C)(c1ccccc1)C1CCCC1 (stereo not drawn) = 6.30
CCC(C)NC(C)(c1ccccc1)C1CCCC1 (stereo not drawn) = 5.61

Given C=CCC(N)(c1ccccc1)C1CCCC1 (stereo not drawn) , respond with its pKi.
5.50

---

Target: NMDAR
Assay: Homologous binding experiments with MK-801
Conditions: rat forebrain
Method: Rat forebrains from 7-8 week old Sprague-Dawley rats (BioChemed, USA) were homogenized in a buffer containing 10 mM HEPES and 1 mM EDTA (pH 7.4) using a mechanical homogenizer (Janke-Kunkel Ultra-Turrax T25). A 10 mL volume was used per brain for all steps involving suspension of the brain homogenate tissue. […] Protein concentration of the homogenate was determined by utilizing the Bradford method using Coomassie protein assay reagent (Sigma, USA) with Bovine Serum albumin (Sigma, USA) as a standard. […]
Observable: Kd
Report as: number unit

Give the value of Kd reported for the following: C[C@]12N[C@H](Cc3ccccc31)c1ccccc12 [MK-801]
1.67 nM

---

target: NMDAR; assay: NMDA receptor [3H]-MK-801 competition radioligand binding in rat forebrain; conditions: [3H]-MK-801 1 nM competition, 1 mM glutamate, 0.1 mM glycine, pH 7.4, 2 h ambient, N = 1-4
Observable: NMDAR binding affinity pKi (mean ± SEM)
Answer as a number with no unit attached.

NC(c1ccccc1Cl)C1CCCC1 (stereo not shown) = 5.47

Please look at CCCC(N)(c1ccccc1)C1CCCC1 (stereo not shown) and tell me its recorded NMDAR binding affinity pKi (mean ± SEM) on NMDAR.
5.94

Using NMDAR as the test system, report measured NMDAR binding affinity pKi (mean ± SEM) of CNC(C)(c1ccccc1)C1CCCC1 (stereo not shown) .
6.56
